Below are IC50 measurements against Phospho-N-acetylmuramoyl-pentapeptide-transferase (Staphylococcus aureus, UniProt P0C1R8) drawn from the literature.
Value type: IC50 (µM)

Worked cases, IC50 given:
1. C[C@H](NC(=O)N[C@@H](Cc1c[nH]c2ccccc12)C(=O)O)C(=O)N[C@@H](C(=O)N/C=C1\O[C@@H](n2ccc(=O)[nH]c2=O)[C@H](O)[C@@H]1O)[C@H](C)N(C)C(=O)[C@@H](Cc1cccc(O)c1)NC(=O)CN | 8.9
2. NC[C@H]1O[C@@H](O[C@@H](C#Cc2ccc(C(=O)Nc3ccccc3)cc2)[C@H]2O[C@@H](n3ccc(=O)[nH]c3=O)[C@H](O)[C@@H]2O)[C@H](O)[C@@H]1O | 0.9
3. CCCCCCCCCCCCCCCC(=O)O[C@H]1CN(CCCCCn2ccc(=O)[nH]c2=O)[C@@H](CO[C@@H]2O[C@H](CN)[C@@H](O)[C@H]2O)C(=O)N[C@@H]1CO | 220
4. NC[C@H]1O[C@@H](O[C@@H](C#Cc2ccccc2)[C@H]2O[C@@H](n3ccc(=O)[nH]c3=O)[C@H](O)[C@@H]2O)[C@H](O)[C@@H]1O | 2
5. NC[C@H]1O[C@@H](O[C@@H](C#Cc2ccc(N)cc2)[C@H]2O[C@@H](n3ccc(=O)[nH]c3=O)[C@H](O)[C@@H]2O)[C@H](O)[C@@H]1O | 0.3

A = CO[C@H]1[C@@H](O)[C@H](n2ccc(=O)[nH]c2=O)O[C@@H]1[C@@H](O[C@@H]1OC(C(=O)N[C@H]2CCC[C@@H](C)NC2=O)=C[C@@H](O)[C@H]1O)C(N)=O
B = NC[C@H]1O[C@@H](O[C@@H](C#Cc2ccccc2)[C@@]23CO[C@@H]([C@H](n4ccc(=O)[nH]c4=O)O2)[C@@H]3O)[C@H](O)[C@@H]1O
C = C#C[C@H](O[C@@H]1O[C@H](CN)[C@@H](O)[C@H]1O)[C@H]1O[C@@H](n2ccc(=O)[nH]c2=O)[C@H](O)[C@@H]1O
Order the 3 molecules from highest to lowest IC50. Return value: ordered labels per request. C, B, A

1 = C[C@H](N)C(=O)N(C)[C@@H](C)[C@H](NC(=O)[C@H](C)NC(=O)N[C@@H](Cc1c[nH]c2ccccc12)C(=O)O)C(=O)N/C=C1/C[C@@H](O)[C@H](n2ccc(=O)[nH]c2=O)O1
2 = CCCCCCCCCCCCCCCC(=O)O[C@H]1CN(CCCCCn2ccc(=O)[nH]c2=O)[C@@H](CO[C@@H]2O[C@H](CN)[C@@H](O)[C@H]2O)C(=O)N[C@@H]1CO[C@@H]1O[C@H](CN)[C@@H](O)[C@H]1O
Which shows the larger IC50 value: 1 or 2 ? Give the label of your selection. 2

---

Below are IC50 measurements against Phospho-N-acetylmuramoyl-pentapeptide-transferase (Staphylococcus aureus, UniProt P0C1R8) drawn from the literature.
- System name: Phospho-N-acetylmuramoyl-pentapeptide-transferase (Staphylococcus aureus, UniProt P0C1R8)
- Sequence (P0C1R8 whole entry): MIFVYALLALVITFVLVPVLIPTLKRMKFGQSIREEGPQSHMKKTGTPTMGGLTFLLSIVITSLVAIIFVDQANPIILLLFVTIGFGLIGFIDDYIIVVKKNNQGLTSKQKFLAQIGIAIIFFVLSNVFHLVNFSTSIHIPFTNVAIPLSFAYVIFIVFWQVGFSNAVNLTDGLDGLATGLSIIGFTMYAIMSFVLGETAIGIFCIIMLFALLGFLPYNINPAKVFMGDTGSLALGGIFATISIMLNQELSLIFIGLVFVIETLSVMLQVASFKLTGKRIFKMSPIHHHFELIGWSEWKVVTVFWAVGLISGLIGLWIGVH
Value type: IC50 (µM)

Worked cases, IC50 given:
1. C#C[C@H](O[C@@H]1O[C@H](CN)[C@@H](O)[C@H]1O)[C@H]1O[C@@H](n2ccc(=O)[nH]c2=O)[C@H](O)[C@@H]1O | 20
2. NC[C@H]1O[C@@H](O[C@@H](C#Cc2ccc(-c3ccccc3)cc2)[C@H]2O[C@@H](n3ccc(=O)[nH]c3=O)[C@H](O)[C@@H]2O)[C@H](O)[C@@H]1O | 0.59
3. CCCCCCCCCCCCCCCC(=O)O[C@H]1CN(C)[C@@H](CO[C@@H]2O[C@H](CN)[C@H]3OC(CC)(CC)O[C@@H]23)C(=O)N[C@@H]1CO[Si](c1ccccc1)(c1ccccc1)C(C)(C)C | 1000
4. NC[C@H]1O[C@@H](O[C@@H](C#Cc2ccccc2)[C@H]2O[C@@H](n3ccc(=O)[nH]c3=O)[C@H](O)[C@@H]2O)[C@H](O)[C@@H]1O | 2.3
5. CCCCCCCCCCCCCCCC(=O)O[C@H]1CN(CCCCCn2ccc(=O)[nH]c2=O)[C@@H](CO[C@@H]2O[C@H](CN=[N+]=[N-])[C@H]3OC(CC)(CC)O[C@@H]23)C(=O)N[C@@H]1CO[Si](c1ccccc1)(c1ccccc1)C(C)(C)C | 190
6. Cc1ccc(C#C[C@H](O[C@@H]2O[C@H](CN)[C@@H](O)[C@H]2O)[C@H]2O[C@@H](n3ccc(=O)[nH]c3=O)[C@H](O)[C@@H]2O)cc1 | 1.3
7. NC[C@H]1O[C@@H](O[C@@H](C#Cc2ccccc2N)[C@H]2O[C@@H](n3ccc(=O)[nH]c3=O)[C@H](O)[C@@H]2O)[C@H](O)[C@@H]1O | 2.1

a = NC[C@H]1O[C@@H](O[C@@H](C#Cc2cccc(N)c2)[C@H]2O[C@@H](n3ccc(=O)[nH]c3=O)[C@H](O)[C@@H]2O)[C@H](O)[C@@H]1O
b = NC[C@H]1O[C@@H](O[C@@H](C#Cc2cccc(NC(=O)c3ccccc3)c2)[C@H]2O[C@@H](n3ccc(=O)[nH]c3=O)[C@H](O)[C@@H]2O)[C@H](O)[C@@H]1O
c = C#C[C@H](O[C@@H]1O[C@H](CN)[C@@H](O)[C@H]1O)[C@@]12CO[C@@H]([C@H](n3ccc(=O)[nH]c3=O)O1)[C@@H]2O
Please produce an ascending ranking of these molecules based on IC50. Return value: ordered labels per request. a, b, c
(a: 1.8 µM, b: 6.7 µM, c: 24 µM)
